Target: Human autotaxin enzyme (Homo sapiens)
Construct: purchased R&D System
Assay: Evaluation of autotaxin inhibitor, Method C (Test Example 3): 18:0 Lyso PC, choline assay, Resorufin fluorescence
Assay type: biochemical
Settings: Assay Method C (Test Example 3), human autotaxin, 18:0 Lyso PC substrate; read-out: Inhibitory Activity (autotaxin enzyme inhibitory activity, IC50 class)
pIC50: −log10 of the molar value.
PROPERTY_MEASURED: pIC50

[[record]]
smiles = "N#CCCCCn1c(NCc2ccc(C(=O)O)cc2)cc(=O)n2cc(-c3ccc(C#N)cc3)nc12"
study_target = "Human autotaxin enzyme (Homo sapiens)"
property_measured = "pIC50"
obs_value = "7.00 to 8.00"

[[record]]
smiles = "CCCCCn1c(-c2ccc(C(=O)N3C[C@@H]4COC(=O)[C@@H]4C3)cc2)cc(=O)n2cc(-c3ccc(Cl)cc3)nc12"
study_target = "Human autotaxin enzyme (Homo sapiens)"
property_measured = "pIC50"
obs_value = "7.00 to 8.00"

[[record]]
smiles = "CCCCCn1c(-c2ccc(CC)cc2)cc(=O)n2cc(-c3ccc(Cl)cc3)nc12"
study_target = "Human autotaxin enzyme (Homo sapiens)"
property_measured = "pIC50"
obs_value = "6.00 to 7.00"

[[record]]
smiles = "CCCCCn1c(N2CCC[C@H]2C(=O)NC(C)(C)C(=O)O)cc(=O)n2cc(-c3ccc(Cl)cc3)nc12"
study_target = "Human autotaxin enzyme (Homo sapiens)"
property_measured = "pIC50"
obs_value = "> 8.00"


---

Listed below: pIC50 values for each entry.
Target: Human autotaxin enzyme (Homo sapiens)
Construct: purchased R&D System
Assay: Evaluation of autotaxin inhibitor, Method C (Test Example 3): 18:0 Lyso PC, choline assay, Resorufin fluorescence
Type: biochemical
Conditions: Assay Method: Method C (Test Example 3); read-out: Inhibitory Activity (Enzyme Inhibitory Activity, IC50)
pIC50: −log10 of the molar value.
PROPERTY_MEASURED: pIC50

[[record]]
compound = "Cc1cc(=O)n2cc(-c3ccc(Cl)cc3)nc2n1CCCC(C)O (stereo not drawn) [Compound 46]"
obs_value = "< 6.00"

[[record]]
compound = "CCC(O)CCn1c(C)cc(=O)n2cc(-c3ccc(Cl)cc3)nc12 (stereo not drawn) [Compound 47]"
obs_value = "< 6.00"

[[record]]
compound = "CCC(=O)CCn1c(C)cc(=O)n2cc(-c3ccc(Cl)cc3)nc12 [Compound 48]"
obs_value = "< 6.00"

[[record]]
compound = "Cc1cc(=O)n2cc(-c3ccc(Cl)cc3)nc2n1CCCCC#N [Compound 63]"
obs_value = "6.00 to 7.00"

[[record]]
compound = "CCCC(=O)Cn1c(C)cc(=O)n2cc(-c3ccc(Cl)cc3)nc12 [Compound 41]"
obs_value = "6.00 to 7.00"

[[record]]
compound = "Cc1cc(=O)n2cc(-c3ccc(Cl)cc3)nc2n1CCCC(C)F (stereo not drawn) [Compound 49]"
obs_value = "6.00 to 7.00"


---

Biological target: Human autotaxin enzyme (Homo sapiens, UniProt Q13822)
Construct: purchased R&D System
Assay: Evaluation of autotaxin inhibitor, Method C (Test Example 3): 18:0 Lyso PC, choline assay, Resorufin fluorescence
Format: biochemical
Conditions: Assay Method C, human autotaxin, 18:0 Lyso PC substrate; read-out: Inhibitory Activity
pIC50: −log10 of the molar value.
PROPERTY_MEASURED: pIC50

[[record]]
compound = "CCCCCn1c(N2CCC[C@@H](c3ccccc3)C2)cc(=O)n2cc(-c3ccc(Cl)cc3)nc12"
obs_value = "< 6.00"

[[record]]
compound = "N#CNC(=O)Cc1cn(CCCC(F)(F)F)c2nc(-c3ccc(Cl)cc3)cn2c1=O"
obs_value = "< 6.00"

[[record]]
compound = "CCCCCn1c(N2CCC[C@H]2C(=O)Nc2ccc(O)c(OC)c2)cc(=O)n2cc(-c3ccc(Cl)cc3)nc12"
obs_value = "6.00 to 7.00"

[[record]]
compound = "CCCCCn1c(N2CCC[C@H]2C(=O)Nc2cc(O)no2)cc(=O)n2cc(-c3ccc(Cl)cc3)nc12"
obs_value = "7.00 to 8.00"

[[record]]
compound = "O=C(Cc1cn(CCCC(F)(F)F)c2nc(-c3ccc(Cl)cc3)cn2c1=O)N(CCO)CCO"
obs_value = "< 6.00"

[[record]]
compound = "NC(=O)C1CCN(C(=O)Cc2cn(CCCC(F)(F)F)c3nc(-c4ccc(Cl)cc4)cn3c2=O)CC1"
obs_value = "< 6.00"

[[record]]
compound = "N#CC1CN(C(=O)Cc2cn(CCCC(F)(F)F)c3nc(-c4ccc(Cl)cc4)cn3c2=O)CCO1 (stereo not shown)"
obs_value = "7.00 to 8.00"

